Experiment: MTT assay of cellular cytotoxicity
Assay type: cell-based
Settings: Chinese hamster, 24 h incubation, CHO-CFTR-wt cells, read-out: TC50
Value type: CC50 at 24 h (µM)
Return type: number; implicit unit µM.

Exercise: # input molecule: COc1cc(/C=C/C(=O)CC(=O)/C=C/c2ccc(O)c(OC)c2)ccc1O [Curcumin, reference compound] ; wanted: its CC50 at 24 h
Solution: 42.7
